- Tgt: CYP2A6 (Homo sapiens, UniProt P11509)
- Assay Comment: Effects of trapping agents and dialysis on inactivation of CYP2A6
- Assay type: biochemical
- Design: made in house
- Applied Conditions: CYP2A6 inhibition reaction mixture, probe coumarin, compound 5 µM, read-out: Per cent remaining activity, Pre-incubation
Measured Parameter: activity at 5 µM (%)

{"columns": ["Compound", "Unit Symbol", "Numeric Readout"],
 "data": [
  ["CC#CC#Cc1ccc(C#CC(O)COC(C)=O)s1 (stereo not drawn)", "%", 30.1],
  ["CC#Cc1ccc(C#CC#CC(O)CO)s1 (stereo not drawn)", "%", 12.5],
  ["CC#Cc1ccc(C#CC#CC(O)COC(C)=O)s1 (stereo not drawn)", "%", 35.2]
]}

----------
- Tgt: CYP2A13 (Homo sapiens)
- Construct: made in house
- Assay Comment: Effects of trapping agents and dialysis on inactivation of CYP2A13
- Assay type: biochemical
- Applied Conditions: CYP2A13 inhibition reaction mixture, probe coumarin, compound 20 µM, read-out: Per cent remaining activity, 5 mM semicarbazide
Measured Parameter: activity at 20 µM

{"columns": ["Compound", "Tgt", "Measured Parameter", "Result"],
 "data": [
  ["CC(=O)OCC1=C2/C(=C\\C3(C)CCC(O)(O3)C(C)CC2OC(=O)/C(C)=C/CO)OC1=O (stereo not shown) [Hirsutinolide 8]", "CYP2A13 (Homo sapiens)", "activity at 20 µM", "20.7%"]
]}

----------
- Tgt: CYP2A13 (Homo sapiens, UniProt Q16696)
- Construct: made in house
- Sequence (Q16696 1-494): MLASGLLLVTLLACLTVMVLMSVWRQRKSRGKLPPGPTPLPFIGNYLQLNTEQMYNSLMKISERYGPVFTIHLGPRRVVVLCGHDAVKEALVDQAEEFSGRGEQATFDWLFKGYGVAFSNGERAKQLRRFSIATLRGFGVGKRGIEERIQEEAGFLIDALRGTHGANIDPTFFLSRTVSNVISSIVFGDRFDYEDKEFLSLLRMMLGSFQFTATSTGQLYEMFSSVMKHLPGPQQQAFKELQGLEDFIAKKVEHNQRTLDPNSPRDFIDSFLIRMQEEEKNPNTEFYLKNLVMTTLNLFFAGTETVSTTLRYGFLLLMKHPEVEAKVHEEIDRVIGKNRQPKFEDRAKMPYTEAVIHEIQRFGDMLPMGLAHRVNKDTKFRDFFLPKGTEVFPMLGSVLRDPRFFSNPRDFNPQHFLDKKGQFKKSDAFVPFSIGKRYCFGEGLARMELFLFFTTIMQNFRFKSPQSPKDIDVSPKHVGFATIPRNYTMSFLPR
- Assay Comment: Effects of trapping agents and dialysis on inactivation of CYP2A13
- Assay type: biochemical
- Applied Conditions: CYP2A13 inhibition reaction mixture, probe coumarin, compound 20 µM, read-out: Per cent remaining activity, Dialysis (−) NADPH

{"columns": ["Molecule", "activity at 20 µM [%]"],
 "data": [
  ["CC(=O)OCC1=C2/C(=C\\C3(C)CCC(O)(O3)C(C)CC2OC(=O)/C(C)=C/CO)OC1=O (stereo not shown) [Hirsutinolide 8]", 92.4]
]}

----------
The compounds listed here are annotated with their activity at 10 µM.
- Tgt: CYP2A13 (Homo sapiens, UniProt Q16696)
- Construct: made in house
- Sequence (Q16696 1-494): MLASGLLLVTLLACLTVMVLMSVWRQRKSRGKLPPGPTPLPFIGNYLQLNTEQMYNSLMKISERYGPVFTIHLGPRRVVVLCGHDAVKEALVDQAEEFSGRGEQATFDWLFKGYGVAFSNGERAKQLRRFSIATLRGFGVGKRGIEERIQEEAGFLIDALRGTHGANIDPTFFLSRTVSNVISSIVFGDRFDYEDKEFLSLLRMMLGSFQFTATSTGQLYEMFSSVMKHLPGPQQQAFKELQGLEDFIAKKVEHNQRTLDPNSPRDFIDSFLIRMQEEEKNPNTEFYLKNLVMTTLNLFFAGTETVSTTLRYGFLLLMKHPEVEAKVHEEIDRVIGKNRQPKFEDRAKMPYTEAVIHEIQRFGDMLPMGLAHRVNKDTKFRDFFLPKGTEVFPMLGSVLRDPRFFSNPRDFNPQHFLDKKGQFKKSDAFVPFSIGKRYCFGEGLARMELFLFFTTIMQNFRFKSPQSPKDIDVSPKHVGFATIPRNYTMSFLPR
- Assay Comment: Effects of trapping agents and dialysis on inactivation of CYP2A13
- Assay type: biochemical
- Applied Conditions: CYP2A13 inhibition reaction mixture, probe coumarin, compound 10 µM, read-out: Per cent remaining activity, 70 μM K3Fe(CN)6
Measured Parameter: activity at 10 µM (%)

{"columns": ["Compound", "Numeric Readout"],
 "data": [
  ["C=C(C)C(=O)OC1CC(C)C2(O)CCC(C)(/C=C3/OC(=O)C(COC(C)=O)=C31)O2 (stereo not drawn) [Hirsutinolide 5]", 24.1],
  ["C=C(CO)C(=O)OC1CC(C)C2(O)CCC(C)(/C=C3/OC(=O)C(COC(C)=O)=C31)O2 (stereo not drawn) [Hirsutinolide 7]", 21.4],
  ["C/C=C(\\C)C(=O)OC1CC(C)C2(O)CCC(C)(/C=C3/OC(=O)C(COC(C)=O)=C31)O2 (stereo not drawn) [Hirsutinolide 6, 8α-tigloyloxyhirsutinolide-13-O-acetate]", 25.9]
]}

----------
- Tgt: CYP2A6 (Homo sapiens)
- Sequence (P11509 1-494): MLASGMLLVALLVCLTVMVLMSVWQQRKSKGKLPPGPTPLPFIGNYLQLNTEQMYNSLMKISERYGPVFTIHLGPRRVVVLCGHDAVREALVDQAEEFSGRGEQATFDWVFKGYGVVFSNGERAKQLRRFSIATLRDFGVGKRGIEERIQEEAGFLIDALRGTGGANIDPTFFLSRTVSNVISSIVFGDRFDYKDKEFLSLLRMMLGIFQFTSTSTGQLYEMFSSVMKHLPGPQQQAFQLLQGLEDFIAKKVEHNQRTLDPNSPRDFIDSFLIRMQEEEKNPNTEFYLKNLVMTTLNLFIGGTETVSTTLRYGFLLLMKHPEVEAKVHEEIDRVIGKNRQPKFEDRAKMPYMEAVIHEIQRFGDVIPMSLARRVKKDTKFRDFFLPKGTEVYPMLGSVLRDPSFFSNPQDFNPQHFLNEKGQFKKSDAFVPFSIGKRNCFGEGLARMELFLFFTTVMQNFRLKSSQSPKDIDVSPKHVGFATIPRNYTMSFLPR
- Assay Comment: Effects of trapping agents and dialysis on inactivation of CYP2A6
- Format: biochemical
- Parameters: made in house
- Applied Conditions: CYP2A6 inhibition reaction mixture, probe coumarin, compound 5 µM, read-out: Per cent remaining activity, 2000 U catalase

{"columns": ["Compound", "activity at 5 µM"],
 "data": [
  ["CC#CC#Cc1ccc(C#CC(O)COC(C)=O)s1 (stereo not drawn)", "26.9%"],
  ["CC#Cc1ccc(C#CC#CC(O)CO)s1 (stereo not drawn)", "14.4%"],
  ["CC#Cc1ccc(C#CC#CC(O)COC(C)=O)s1 (stereo not drawn)", "24.1%"]
]}

----------
- Tgt: CYP2A13 (Homo sapiens, UniProt Q16696)
- Construct: made in house
- Assay Comment: Effects of trapping agents and dialysis on inactivation of CYP2A13
- Format: biochemical
- Applied Conditions: CYP2A13 inhibition reaction mixture, probe coumarin, compound 5 µM, read-out: Per cent remaining activity, 5 mM semicarbazide
Quick reference: activity at 5 µM of the listed items.

{"columns": ["Compound", "activity at 5 µM, %"],
 "data": [
  ["CC#Cc1ccc(C#CC#CC(O)COC(C)=O)s1 (stereo not drawn)", 27],
  ["CC#CC#Cc1ccc(C#CC(O)COC(C)=O)s1 (stereo not drawn)", 23.2],
  ["CC#Cc1ccc(C#CC#CC(O)CO)s1 (stereo not drawn)", 19.6]
]}

----------
- Tgt: CYP2A13 (Homo sapiens, UniProt Q16696)
- Construct: made in house
- Assay Comment: Mechanism-based (time- and NADPH-dependent) inactivation of CYP2A13
- Assay type: biochemical
- Applied Conditions: pre-incubation 0-30 min with NADPH; read-out: CYP2A13 KI (inactivation constant)
- Procedure: MBI requires NADPH and time to generate reactive intermediate as inhibitor and ultimately inactivates the enzyme. MBI was evaluated by pre-incubation with each test inhibitor in the reaction at different time periods (0, 10, 20 and 30 min) in the presence of NADPH for time-dependent assay, as described. The apparent inactivation constants, KI and Kinact, were obtained from double reciprocal plots of kobs versus inhibitor concentrations by linear regression analysis on GraphPad Prism 5. […]
Recorded KI (inactivation) by entry
Measured Parameter: KI (inactivation) (nM)

{"columns": ["Compound", "Measured Parameter", "Numeric Readout"],
 "data": [
  ["CC#Cc1ccc(C#CC#CC(O)CO)s1 (stereo not shown) [Thiophene 11]", "KI (inactivation)", 670],
  ["CC#Cc1ccc(C#CC#CC(O)COC(C)=O)s1 (stereo not shown) [Thiophene 10]", "KI (inactivation)", 860],
  ["C=C(CO)C(=O)OC1CC(C)C2(O)CCC(C)(/C=C3/OC(=O)C(COC(C)=O)=C31)O2 (stereo not shown) [Hirsutinolide 7]", "KI (inactivation)", 8670],
  ["C/C=C(\\C)C(=O)OC1CC(C)C2(O)CCC(C)(/C=C3/OC(=O)C(COC(C)=O)=C31)O2 (stereo not drawn) [Hirsutinolide 6, 8α-tigloyloxyhirsutinolide-13-O-acetate]", "KI (inactivation)", 3600]
]}
